Just for reference, patent US4107424A is where these values come from.

- System: Escherichia coli K-12 ML 1410
- test.summary: Minimal inhibitory concentration, agar dilution streak method
- Assay type: cell-based
- experimental.context: K12ML1410, nutrient agar, 37° C, 18 hours, read-out: Minimal inhibitory concentration
// values below are reported log10(MIC)
In plain terms, each number is the log10 of measured MIC in µg/mL.

Worked cases, log10(MIC) given:
NC[C@H]1O[C@H](O[C@H]2[C@H](O[C@@H]3O[C@H](CO)[C@@H](O)[C@H]3O)[C@@H](O)[C@H](N)C[C@@H]2N)[C@H](N)[C@@H](O)[C@@H]1O | 0.49
NCC[C@H](O)C(=O)N[C@@H]1C[C@H](N)[C@@H](O[C@H]2O[C@H](CN)[C@@H](O)[C@H](O)[C@H]2N)[C@H](O[C@@H]2O[C@H](CO)[C@@H](O)[C@H]2O)[C@H]1O | -0.11
NC[C@H]1O[C@H](O[C@H]2[C@H](O)[C@@H](O[C@H]3O[C@H](CO)[C@@H](O)[C@H](N)[C@H]3O)[C@H](N)C[C@@H]2N)[C@H](N)[C@@H](O)[C@@H]1O | -0.11

Exercise: Given the compound `NC[C@@H]1CC[C@@H](N)[C@@H](O[C@H]2[C@H](O)[C@@H](O)[C@H](N)C[C@@H]2N)O1` , write its reported log10(MIC).
Solution: 0.80

Exercise: Given the compound `NCC[C@H](O)C(=O)N[C@@H]1C[C@H](N)[C@@H](O[C@H]2O[C@H](CN)CC[C@H]2N)[C@H](O[C@@H]2O[C@H](CO)[C@@H](O)[C@H]2O)[C@H]1O` , write its reported log10(MIC).
Solution: -0.11

Exercise: Given the compound `NC[C@H]1O[C@H](O[C@H]2[C@H](O)[C@@H](O)[C@H](N)C[C@@H]2N)[C@H](N)[C@@H](O)[C@@H]1O` , write its reported log10(MIC).
Solution: 1.10

Exercise: Given the compound `NCC[C@H](O)C(=O)N[C@@H]1C[C@H](N)[C@@H](O[C@H]2O[C@H](CN)[C@@H](O)[C@H](O)[C@H]2N)[C@H](O)[C@H]1O[C@H]1O[C@H](CO)[C@@H](O)[C@H](N)[C@H]1O` , write its reported log10(MIC).
Solution: 0.50

Exercise: Given the compound `NC[C@@H]1CC[C@@H](N)[C@@H](O[C@H]2[C@H](O[C@@H]3O[C@H](CO)[C@@H](O)[C@H]3O)[C@@H](O)[C@H](N)C[C@@H]2N)O1` , write its reported log10(MIC).
Solution: 0.80
